Test: protein stability index of a GFP-peptide fusion (yeast GPS) (PSI 1-4); higher = more stable; sorted into four equal gates, so the index is relative within each strain
Conditions: pdr5∆
READOUT_KIND: protein stability index
Numbers only.

As a guide, the following entries are already answered.
MTTPQNISSSQQLLPAP [DSN1] = 2.89
TTRNGFMEAQGAGIQII [FAS2] = 2.31
RNEEILRDIGECENEIK [SMC2] = 2.94
FKTYRNETIIDNFSPHQ [SMC3] = 1.42
LKLDKIIHVLTTMFENT [RGR1] = 2.43

Could you report protein stability index for every entry in the following list?
1. DFKPPYIYSHVNKVPQN [SWP82]
2. SDSLDIAQGIDLVRDID [SRP72]
3. LTYDKDLTNNPQDDDSQ [MTR3]
4. IDHINEESWEKVVEFAI [SCL1]
5. PIDIFQIIRRVKEMEPK [SIR3]
6. VRIHSIQVLTEASSLGY [IRR1]
7. NSIDVPIRINSTEEIEY [YMR129W/POM152]
8. SFALPFEEDEKNSDVWF [RPN8]

Result ::
[2.14, 3.38, 3.21, 3.08, 3.22, 1.64, 2.27, 3.23]

// each sequence listed below needs its protein stability index
1. KLDSKKILPTDIQLKNL [SRP68]
2. AISLGLLKGSIDQVNEL [RPN9]

Result ::
2.78
3.08

Parameter requested: protein stability index. Apply to each item below.
1. DLKKKLNSLKDERSQGE [SMC4]
2. AFFTYDAGVTFNKEQLN [ECM29]

Result ::
1: 3.16; 2: 3.08

Please look at the items below and tell me protein stability index for each one, in order.
1. SNFADSADYEILYEIRA [YDL116W/NUP84]
2. LYLKVIPMDFIRNVLVT [SSN2]
3. NMPNCDYLTLNKVVVNL [RPN2]
4. LTHSTPKNFGIGQAVQP [RPL8A]
5. SLHNTEKIMENKYPELL [AAR2]
6. EPILGQITLTFISELCS [YML103C/NUP188]
7. DIPTIADEHFWADNYER [BRN1]
8. FGEWAGMTKSNIYNFSP [BRR2]

Result ::
[1.61, 1.11, 2.88, 3.01, 3.18, 2.32, 3.18, 3.05]

* * *

Please go through the items and note down their protein stability index.
Assay: protein stability index of a GFP-peptide fusion (yeast GPS) (PSI 1-4); higher = more stable; sorted into four equal gates, so the index is relative within each strain
Conditions: pdr5∆
Numbers only.

Recorded results for 8 sequences are shown here.
HPYEYEIDHQEYSPEIL [RRP6] = 2.69
KIYNFGELLHHPIMETI [RPN9] = 2.6
GNGELYMDCLLYDLRAS [SNU114] = 2.12
EDKFLYGDGNGKGDNDN [SWI3] = 3.35
LQILAMLLLNIFISSDH [YMR129W/POM152] = 1.36
AFKHKRALVEHIIQAKA [RPL19A] = 3.37
DDSLNRLAQNDGLLKNV [RPS21A] = 3.04
KPYYFSNNHKLSESDKK [RPN12] = 1.47

// batch mode: one protein stability index value per listed entry
1. AFALAKEKAPTIIFIDE [RPT5]
2. MTAVRRSTRIRTKSQVI [IRR1]
3. GIPPPYDKKKRVVVPQA [RPL16B]
4. MSQAVNAKKRVFKTHSY [RPS15]
5. GTISIQLKNGLLEKYNT [MTR3]
6. TLAERQQLAYDLSISAL [RPN9]

Result ::
[2.78, 3.23, 2.2, 1.72, 2.5, 2.47]

* * *

For each entry below, report its protein stability index value.
Assay: protein stability index of a GFP-peptide fusion (yeast GPS) (PSI 1-4); higher = more stable; sorted into four equal gates, so the index is relative within each strain
Conditions: doa10∆
Answers are plain numbers.

The following sequences have reported results that may help.
ERAKNVNGLLQVLMDIN [GAL11] = 2.94
GKEVEVLMETKNTQSPQ [SNU114] = 3.19
TVIKFRAGVCEYNEDSR [RPN13] = 2.26
IPSKNTPDASKPSFSFG [YLR335W/NUP2] = 2.51

For the 8 sequences below, give their protein stability index values.
1. VQYLSGAHGNSDPVCLF [POP3]
2. LVRELYQWRDLIARRDD [RRP6]
3. ELGNMTMLITGQRPDRA [SIN4]
4. VNSIALFVGTDRQLHEI [RPN14]
5. EEEEDTTTTANINEVKK [NUT1]
6. AISKKDLEEVKRFQVLY [SEC65]
7. SIGASIADLASLEQLLG [YCS4]
8. TLKPTFSFTEPAQKDSS [YOR098C/NUP1]

Result ::
[2.96, 2.96, 2.54, 2.43, 3.24, 2.6, 2.84, 2.78]

* * *

Assay: protein stability index of a GFP-peptide fusion (yeast GPS) (PSI 1-4); higher = more stable; sorted into four equal gates, so the index is relative within each strain
Details: pdr5∆
READOUT_KIND: protein stability index
Numbers only.

Examples with answers:
RNVNWIERLTKRQFNNS [ITC1] = 3.36
DNDGFSFLMRQFTRFFL [ECM29] = 2.19

Give protein stability index for each of the items listed below.
1. RARKDRMRVSVLEKYEV [SSN3]
2. DLKASQRVCLRSDSYML [RPT6]
3. FNRLKKQAHEKLDASKK [YIL149C/MLP2]

Result ::
[2.65, 3.08, 3.08]

Required: protein stability index, one value per sequence below.
1. MIIDEGHRMKNAQSKLS [SNF2]
2. PKFAIQDNHHITKVTEN [YMR129W/POM152]

Result ::
1: 1.98; 2: 2.88

* * *

Test: protein stability index of a GFP-peptide fusion (yeast GPS) (PSI 1-4); higher = more stable; sorted into four equal gates, so the index is relative within each strain
Settings: doa10∆
READOUT_KIND: protein stability index

# annotated cases, reported protein stability index shown
AIGYEPLSLTHRDKNKM [DIS3] = 2.83
TLKKEWLKEYEDETLRR [YIL149C/MLP2] = 3.12
SEAEQIDTSKNLENMSI [YCG1] = 3.3
AILQEKILSILNRSHFA [ECM29] = 1.87

Parameter requested: protein stability index. Apply to each item below.
1. GLVNPKTVQSMTQRAIQ [SWI3]
2. KTFKNPKYESLKLEYYN [RPN5]
3. QDDADPMVSVMKMDKSP [RPT2]
4. NDQVEKDAEDETSSDGS [RPN1]
5. MGGVSALRGMFKDRFKD [FAS2]
6. FQIPTNLDAAAAGTSQA [RPC10]
7. KYSDILLKKATKPEVAS [CDC53]

Result ::
1. 3.25
2. 2.11
3. 1.16
4. 2.63
5. 3.56
6. 2.44
7. 2.32

For each of the sequences below, state protein stability index.
1. QFEWHQNSLLTNTHPNF [SNF2]
2. LKRISDGLSFGKGESVI [SIR3]

Result ::
1. 2.87
2. 3.21

Please look at the items below and tell me protein stability index for each one, in order.
1. TEYGRKYNVNISALTQT [PRP8]
2. SLLLTNVIITGSTSLIE [ARP7]

Result ::
2.07
1.54

* * *

I'd be grateful if you could share measured protein stability index for these entries.
Experiment: protein stability index of a GFP-peptide fusion (yeast GPS) (PSI 1-4); higher = more stable; sorted into four equal gates, so the index is relative within each strain
Conditions: ubr1∆
Numbers only.

In the examples that follow, each entry is paired with its recorded protein stability index.
SAENRDEKDYLTNQQPK [CSE2] = 2.77
IVPIFQLISAVLVSMGS [YJL039C/NUP192] = 1.22
SFILSSLEDPQVRKKQI [YDL116W/NUP84] = 3

Parameters: items (list). Returns: protein stability index for each item.
1. PVSVSRIARALKQEGAA [RPL18A]
2. APTRELVQQIQKETQKV [PRP28]
3. KEDKSEAIDGNGEIKGE [SNF2]
4. QQQQQNTNNNDTIATSA [GAL11]

Result ::
1. 3.3
2. 3.14
3. 2.48
4. 2.6

* * *

Test: protein stability index of a GFP-peptide fusion (yeast GPS) (PSI 1-4); higher = more stable; sorted into four equal gates, so the index is relative within each strain
Conditions: doa10∆
Class key for protein stability index values: bottom bin: < 2; middle bin: ≥ 2 and < 3; top bin: ≥ 3

Here's what some known entries look like.
HCYPRQLCQITCQILES [RRP46] = bottom bin
DEVTIRRTVGLKKDDYQ [SMC3] = middle bin
NGDEGDDENEPKRKRRL [YOR098C/NUP1] = top bin
GSIFTHETTFMTAMRLM [YML031W/NDC1] = bottom bin
TYAAEIAHNISAKNRVV [RPL32] = middle bin
ESWANQLTVCGAIIGWT [FAS2] = bottom bin
KYLYLRAVGGEVGASAA [RPL12A] = bottom bin
NQIQRQQQQQFRHHVQI [SNF5] = bottom bin
NEKVAVMRNTYNTRKNA [GAL11] = middle bin
KFPPPTPLLENISISTS [BRR2] = bottom bin

Query :: Using the reported protein stability index, which band applies to DGAYALSASWDKTLRLW [ASC1] ?
Result :: top bin

Query :: # classify by protein stability index band: IVPLTEGDIQVLKSYGA [RPT1]
Result :: top bin

Query :: Place this sequence in its band: TNVSKQNDFLFSVGESL [ECM29]
Result :: middle bin

Query :: Which category does the recorded protein stability index put GKIQENIPFWKHVGFEL [SRP72] in?
Result :: middle bin
